System Under Test: T1, recombinant human TIGIT (Sino Biological) (human, UniProt Q495A1 22-138)
T1 construct: Bought protein; NP_776160.2; also called human TIGIT antigen; hTIGIT
T1 sequence: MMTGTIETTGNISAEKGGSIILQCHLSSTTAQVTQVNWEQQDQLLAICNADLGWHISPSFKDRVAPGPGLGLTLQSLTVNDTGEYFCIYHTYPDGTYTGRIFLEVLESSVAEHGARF
Measurement Notes: SPR (Biacore T200), single cycle kinetics, IgG from supernatant captured on anti-human chip, TIGIT as analyte, 1:1 fit;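 also: measured at 25 °C in HBS-P+ with 1% BSA, four ascending TIGIT concentrations, 210 s association per step, one final 900 s dissociation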
Listed binders paired with reported kon

Binder	kon [M⁻¹ s⁻¹]
7A6 VH5/Vκ2 humanized antibody (human IgG1, kappa) (antibody, V domains shown, Tested as IgG in supernatant of transiently transfected HEK293 EBNA cells) VH: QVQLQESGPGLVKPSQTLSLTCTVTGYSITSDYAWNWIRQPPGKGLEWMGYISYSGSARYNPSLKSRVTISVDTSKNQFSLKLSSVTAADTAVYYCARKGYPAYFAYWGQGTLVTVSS VL: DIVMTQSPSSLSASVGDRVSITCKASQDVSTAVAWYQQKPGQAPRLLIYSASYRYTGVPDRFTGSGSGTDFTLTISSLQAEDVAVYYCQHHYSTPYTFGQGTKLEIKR	1.23e+06
7A6 VH2/Vκ3 humanized antibody (human IgG1, kappa) (antibody, V domains shown, Tested as IgG in supernatant of transiently transfected HEK293 EBNA cells) VH: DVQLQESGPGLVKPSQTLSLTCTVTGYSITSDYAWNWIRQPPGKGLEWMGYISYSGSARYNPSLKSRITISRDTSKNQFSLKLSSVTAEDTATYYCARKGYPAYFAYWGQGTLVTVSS VL: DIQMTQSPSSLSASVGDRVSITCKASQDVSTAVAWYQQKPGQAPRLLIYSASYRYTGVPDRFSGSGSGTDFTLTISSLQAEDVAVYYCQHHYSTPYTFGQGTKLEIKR	1.49e+06
